Listing of recorded log10 IC50 by entry.
Biological target: IRAK4 (Homo sapiens)
Sequence (Q9NWZ3 1-460): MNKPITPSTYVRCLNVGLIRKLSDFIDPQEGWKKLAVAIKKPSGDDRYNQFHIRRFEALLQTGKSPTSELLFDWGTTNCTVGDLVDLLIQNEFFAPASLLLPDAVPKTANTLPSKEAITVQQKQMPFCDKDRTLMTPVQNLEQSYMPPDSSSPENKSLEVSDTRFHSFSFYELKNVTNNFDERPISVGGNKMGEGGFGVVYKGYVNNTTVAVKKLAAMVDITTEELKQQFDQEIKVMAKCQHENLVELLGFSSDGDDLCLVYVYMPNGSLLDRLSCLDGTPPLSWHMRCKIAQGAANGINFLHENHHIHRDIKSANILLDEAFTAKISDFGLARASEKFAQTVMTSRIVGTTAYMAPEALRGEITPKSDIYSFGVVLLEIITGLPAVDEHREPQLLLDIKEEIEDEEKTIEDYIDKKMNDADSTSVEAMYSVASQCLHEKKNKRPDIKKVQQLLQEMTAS
Assay: RBC HotSpot Kinase Assay, IRAK4
Format: biochemical
Set-up: purchased Reaction Biology (RBC), HotSpot kinase assay
Settings: isolated kinase, 33P-ATP
recordedEndpoint: log10 IC50 (log10 of the value in nM)

compound	resultNumber
CC(C)(C)c1cn2c(-c3nc(N[C@H]4CNC[C@@H]4F)c(F)cc3F)cnc2cn1	-0.15
CC(C)(O)c1cn2c(-c3cccc(N[C@@H]4CCNC4)n3)cnc2cn1	-0.05
CC(O)(c1cn2c(-c3cc(F)cc(N[C@H]4CNC[C@@H]4F)n3)cnc2cn1)C(F)(F)F (single isomer, unassigned) [Compound 84]	0.30
O=S1(=O)CCCN1c1cn2c(-c3cccc(N[C@@H]4CCCNC4)n3)cnc2cn1	0.30
CC(O)(c1cn2c(-c3nc(N[C@H]4CNC[C@@H]4F)c(F)cc3F)cnc2cn1)C(F)(F)F (single isomer, unassigned) [Compound 91]	0.30
O=C1CCCN1c1cn2c(-c3nc(N[C@H]4CNCC[C@@H]4F)c(F)cc3F)cnc2cn1	1.58
O=C1NCCN1c1cn2c(-c3cccc(N[C@@H]4CCCNC4)n3)cnc2cn1	1.15
